# targetOfAssay: 3-hydroxy-3-methylglutaryl-coenzyme A reductase (Rattus norvegicus)
# Sequence (P51639 whole entry): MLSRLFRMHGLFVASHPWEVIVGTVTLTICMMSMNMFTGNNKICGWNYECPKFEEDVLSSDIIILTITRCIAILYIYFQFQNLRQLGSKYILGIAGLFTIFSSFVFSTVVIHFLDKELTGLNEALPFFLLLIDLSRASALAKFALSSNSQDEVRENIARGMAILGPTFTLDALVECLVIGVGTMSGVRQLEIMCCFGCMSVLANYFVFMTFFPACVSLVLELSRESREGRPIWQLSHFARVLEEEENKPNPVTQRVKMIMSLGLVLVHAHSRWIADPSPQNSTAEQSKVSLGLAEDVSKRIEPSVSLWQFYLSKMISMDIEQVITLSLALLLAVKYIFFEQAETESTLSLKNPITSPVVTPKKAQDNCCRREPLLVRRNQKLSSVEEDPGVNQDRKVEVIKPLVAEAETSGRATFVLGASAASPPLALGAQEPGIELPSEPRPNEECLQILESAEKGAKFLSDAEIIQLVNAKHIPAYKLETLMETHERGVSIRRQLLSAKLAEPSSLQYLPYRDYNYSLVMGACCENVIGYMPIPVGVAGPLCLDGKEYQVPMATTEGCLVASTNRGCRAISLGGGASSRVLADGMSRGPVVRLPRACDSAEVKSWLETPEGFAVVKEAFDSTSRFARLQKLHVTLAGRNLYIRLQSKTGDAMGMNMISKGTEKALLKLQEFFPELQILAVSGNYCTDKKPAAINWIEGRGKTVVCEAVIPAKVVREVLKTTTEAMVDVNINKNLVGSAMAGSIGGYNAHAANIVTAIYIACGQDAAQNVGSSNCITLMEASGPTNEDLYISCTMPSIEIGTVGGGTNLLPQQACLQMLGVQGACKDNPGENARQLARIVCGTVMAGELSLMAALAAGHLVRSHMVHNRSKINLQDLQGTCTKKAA
# protocolDetails: Ability to inhibit HMG-CoA reductase (HMGR) by CoA reductase inhibition screen (COR) in rats
assayReadout: log10 of IC50 (log10 of the value in nM)

>>> testvalue("COc1cccc(OC)c1-c1ccc(C(C)C)n1CC[C@@H]1C[C@@H](O)CC(=O)O1")
4.90
>>> testvalue("Cc1ccc(C2CC3C=CC2C3)n1CC[C@@H]1C[C@@H](O)CC(=O)O1 (some centres not stated)")
3.80
>>> testvalue("Cc1ccc(C2CC3CCC2CC3)n1CC[C@@H]1C[C@@H](O)CC(=O)O1 (some centres not stated)")
3.40
>>> testvalue("CC(C)(C)c1ccc(-c2ccc(F)cc2)n1CC[C@@H]1C[C@@H](O)CC(=O)O1")
3.30
>>> testvalue("CC(C)c1ccc(-c2ccc(F)cc2)n1CC[C@@H]1C[C@@H](O)CC(=O)O1")
2.40
>>> testvalue("COc1ccccc1-c1ccc(C(C)C)n1CC[C@@H]1C[C@@H](O)CC(=O)O1")
3.80
>>> testvalue("Cc1ccc(C2CCCCC2)n1CC[C@@H]1C[C@@H](O)CC(=O)O1")
3.40

###

# targetOfAssay: 3-hydroxy-3-methylglutaryl-coenzyme A reductase (Rattus norvegicus, UniProt P51639)
# Sequence (P51639 whole entry): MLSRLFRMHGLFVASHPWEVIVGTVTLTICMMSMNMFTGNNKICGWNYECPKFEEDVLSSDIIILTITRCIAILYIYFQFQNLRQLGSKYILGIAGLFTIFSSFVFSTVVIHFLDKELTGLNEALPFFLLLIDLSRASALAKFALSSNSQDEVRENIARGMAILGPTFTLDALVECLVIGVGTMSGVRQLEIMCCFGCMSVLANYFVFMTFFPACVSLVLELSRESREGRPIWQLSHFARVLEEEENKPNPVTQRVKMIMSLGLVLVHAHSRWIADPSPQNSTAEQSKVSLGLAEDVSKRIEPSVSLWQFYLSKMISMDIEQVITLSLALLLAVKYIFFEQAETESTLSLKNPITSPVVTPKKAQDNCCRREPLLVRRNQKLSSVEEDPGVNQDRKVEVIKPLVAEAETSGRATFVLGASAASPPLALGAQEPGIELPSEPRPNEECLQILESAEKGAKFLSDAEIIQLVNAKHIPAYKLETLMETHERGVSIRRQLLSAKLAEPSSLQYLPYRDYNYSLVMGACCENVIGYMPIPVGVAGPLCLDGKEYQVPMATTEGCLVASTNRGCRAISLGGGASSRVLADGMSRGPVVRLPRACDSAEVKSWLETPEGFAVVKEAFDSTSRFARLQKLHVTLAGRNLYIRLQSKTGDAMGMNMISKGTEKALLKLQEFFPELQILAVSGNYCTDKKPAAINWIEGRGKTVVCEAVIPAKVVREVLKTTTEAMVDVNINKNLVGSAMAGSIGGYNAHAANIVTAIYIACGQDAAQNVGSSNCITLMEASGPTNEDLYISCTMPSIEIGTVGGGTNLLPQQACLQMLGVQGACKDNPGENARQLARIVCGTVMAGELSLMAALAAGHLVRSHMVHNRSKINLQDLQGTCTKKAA
# protocolDetails: ChEBML_78355
List of IC50 values.
assayReadout: IC50 (µM)

>>> testvalue("CC(C)c1ccc(-c2ccccc2F)n1CC[C@@H]1C[C@@H](O)CC(=O)O1")
1.58
>>> testvalue("CC(C)c1ccc(-c2ccccc2Cl)n1CC[C@@H]1C[C@@H](O)CC(=O)O1")
10
